The values you see were collected from patent US20250163164A1.

Exercise: state measured Top (MFI) for each of the binders provided.
- Target under test: T1, human interleukin 13 receptor subunit alpha 2 (IL-13RA2) (human, UniProt Q14627 27-380)
- T1 construct: whole, on cells; also called IL-13Rα2; CD213A2
- T1 sequence (looked up): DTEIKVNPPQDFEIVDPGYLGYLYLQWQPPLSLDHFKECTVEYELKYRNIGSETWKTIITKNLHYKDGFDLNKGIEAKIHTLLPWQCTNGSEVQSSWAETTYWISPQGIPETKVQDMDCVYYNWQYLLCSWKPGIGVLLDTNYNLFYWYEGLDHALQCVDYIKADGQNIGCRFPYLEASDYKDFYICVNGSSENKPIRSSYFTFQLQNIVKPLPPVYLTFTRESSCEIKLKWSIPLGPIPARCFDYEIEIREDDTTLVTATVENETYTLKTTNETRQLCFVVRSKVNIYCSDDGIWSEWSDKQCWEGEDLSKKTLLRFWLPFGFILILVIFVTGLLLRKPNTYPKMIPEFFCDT
- Experiment description: FACS on A375 cells
Quick reminder: number only, in MFI, skip the unit.

Prompt line: Write down Top (MFI) measured for item 57F8H3F1 H3L2 hIgG1 (antibody, V domains shown, humanized, hIgG1) VH: QVQLVQSGAEVVKPGASVKLSCKASGYTFTNYWMNWVKQAPGQGLEWIGRIDAYETETHYNQKFRDRATLTVDKSTSTVYMELSSLRSEDTAVYYCARGYGHYYGVDYWGQGTLVTVSS VL: DIQMTQSPSSLSASVGDRVTITCRASENVGNFGISFVNWFQQKPGKAPKLLIYAASNLGSGDPSRFSGSGSGTDFTLTISSLQPEDFATYFCQQSKGVPWTFGQGTKVEIK
Response line: 7420

Prompt line: Please give the documented Top (MFI) of 72B4H4 H3L1 hIgG1 (antibody, V domains shown, humanized, hIgG1) VH: QVQLVQSGAEVVKPGASVKLSCKASGYTFTNYWMNWVKQAPGQGLEWIGRIDAYAGETHYNQKFKDRATLTVDKSTSTVYMELSSLRSEDTAVYYCARGYGDAYGMDHWGQGTLVTVSS VL: DIQMTQSPSSLSASVGDRVTITCRASESVDNYGISFMNWYQQKPGKAPKLLIYAASRQGSGVPSRFSGSGSGTDFTLTISSLQPEDFATYYCQQSKEVPWTFGQGTKVEIK
Response line: 8830

Prompt line: Please look at this binder and report its Top (MFI): 57F8H3F1 H1L4 hIgG1 (antibody, V domains shown, humanized, hIgG1) VH: QVQLVQSGAEVKKPGASVKVSCKASGYTFTNYWMNWVRQAPGQGLEWMGRIDAYETETHYNQKFRDRVTMTRDTSTSTVYMELSSLRSEDTAVYYCARGYGHYYGVDYWGQGTLVTVSS VL: DIVLTQSPSSLSASVGDRATITCRASENVGNFGISFVNWFQQKPGKPPKLLIYAASNLGSGDPARFSGSGSGTDFTLTISSLQPEDFATYFCQQSKGVPWTFGGGTKLEIK
Response line: 7820

Prompt line: Specify Top (MFI) for 72B4H4 H4L2 hIgG1 (antibody, V domains shown, humanized, hIgG1) VH: QVQLVQSGAEVVKPGASVKLSCKASGYTFTNYWMNWVKQRPGQGLEWIGRIDAYAGETHYNQKFKDRAILTVDKSTSTAYMELRSLRSEDTAVYYCARGYGDAYGMDHWGQGTLVTVSS VL: DIQMTQSPSSLSASVGDRVTITCRASESVDNYGISFMNWFQQKPGKAPKLLIYAASRQGSGDPSRFSGSGSGTDFTLTISSLQPEDFATYFCQQSKEVPWTFGQGTKVEIK and stop.
Response line: 8610

Prompt line: Specify measured Top (MFI) for 61H8C1 H4L1 hIgG1 (antibody, V domains shown, humanized, hIgG1) VH: QVQLVQSGAEVAKPGASVKLSCKASGYTFTSYWTQWIKQAPGQGLEGIGAIYPGDDDTSYNQKFKGKATLTADKSTSTAYMQLSSLRSEDTAVYYCARGATLLRPFPYWGQGTLVTVSS VL: DIQMTQSPSSLSASVGDRVTITCKASQDVSTAVAWYQQKPGKAPKLLIYSASYRYTGVPSRFSGSGSGTDFTLTISSLQPEDFATYYCQQHYSIPPTFGQGTKLEIK .
Response line: 22200

Prompt line: Identify measured Top (MFI) associated with 72B4H4 H1L3 hIgG1 (antibody, V domains shown, humanized, hIgG1) VH: QVQLVQSGAEVKKPGASVKVSCKASGYTFTNYWMNWVRQAPGQGLEWMGRIDAYAGETHYNQKFKDRVTMTRDTSTSTVYMELSSLRSEDTAVYYCARGYGDAYGMDHWGQGTLVTVSS VL: DIQLTQSPSSLSASVGDRVTITCRASESVDNYGISFMNWFQQKPGKAPKLLIYAASRQGSGDPARFSGSGSGTDFTLTISSLQPEDFATYFCQQSKEVPWTFGGGTKVEIK
Response line: 8900

Prompt line: Respond only with Top (MFI) recorded for 72B4H4 H2L4 hIgG1 (antibody, V domains shown, humanized, hIgG1) VH: QVQLVQSGAEVVKPGASVKVSCKASGYTFTNYWMNWVRQAPGQGLEWIGRIDAYAGETHYNQKFKDRVTMTVDTSTSTVYMELSSLRSEDTAVYYCARGYGDAYGMDHWGQGTLVTVSS VL: DIVLTQSPSSLSASVGDRATITCRASESVDNYGISFMNWFQQKPGKPPKLLIYAASRQGSGDPARFSGSGSGTDFTLTISSLQPEDFATYFCQQSKEVPWTFGGGTKLEIK
Response line: 8630

Prompt line: Name the recorded Top (MFI) of the binder listed here: 61H8C1 H2L1 hIgG1 (antibody, V domains shown, humanized, hIgG1) VH: QVQLVQSGAEVAKPGASVKVSCKASGYTFTSYWTQWIRQAPGQGLEGMGAIYPGDDDTSYNQKFKGRVTMTADTSTSTVYMELSSLRSEDTAVYYCARGATLLRPFPYWGQGTLVTVSS VL: DIQMTQSPSSLSASVGDRVTITCKASQDVSTAVAWYQQKPGKAPKLLIYSASYRYTGVPSRFSGSGSGTDFTLTISSLQPEDFATYYCQQHYSIPPTFGQGTKLEIK
Response line: 22400

Prompt line: Give the reported value of Top (MFI) for this record: 72B4H4 H2L2 hIgG1 (antibody, V domains shown, humanized, hIgG1) VH: QVQLVQSGAEVVKPGASVKVSCKASGYTFTNYWMNWVRQAPGQGLEWIGRIDAYAGETHYNQKFKDRVTMTVDTSTSTVYMELSSLRSEDTAVYYCARGYGDAYGMDHWGQGTLVTVSS VL: DIQMTQSPSSLSASVGDRVTITCRASESVDNYGISFMNWFQQKPGKAPKLLIYAASRQGSGDPSRFSGSGSGTDFTLTISSLQPEDFATYFCQQSKEVPWTFGQGTKVEIK
Response line: 8700

Prompt line: Note down Top (MFI) recorded for 72B4H4 H3L4 hIgG1 (antibody, V domains shown, humanized, hIgG1) VH: QVQLVQSGAEVVKPGASVKLSCKASGYTFTNYWMNWVKQAPGQGLEWIGRIDAYAGETHYNQKFKDRATLTVDKSTSTVYMELSSLRSEDTAVYYCARGYGDAYGMDHWGQGTLVTVSS VL: DIVLTQSPSSLSASVGDRATITCRASESVDNYGISFMNWFQQKPGKPPKLLIYAASRQGSGDPARFSGSGSGTDFTLTISSLQPEDFATYFCQQSKEVPWTFGGGTKLEIK
Response line: 8770
